Target: T1, human GIP receptor (human, UniProt P48546 22-466)
T1 sequence (looked up): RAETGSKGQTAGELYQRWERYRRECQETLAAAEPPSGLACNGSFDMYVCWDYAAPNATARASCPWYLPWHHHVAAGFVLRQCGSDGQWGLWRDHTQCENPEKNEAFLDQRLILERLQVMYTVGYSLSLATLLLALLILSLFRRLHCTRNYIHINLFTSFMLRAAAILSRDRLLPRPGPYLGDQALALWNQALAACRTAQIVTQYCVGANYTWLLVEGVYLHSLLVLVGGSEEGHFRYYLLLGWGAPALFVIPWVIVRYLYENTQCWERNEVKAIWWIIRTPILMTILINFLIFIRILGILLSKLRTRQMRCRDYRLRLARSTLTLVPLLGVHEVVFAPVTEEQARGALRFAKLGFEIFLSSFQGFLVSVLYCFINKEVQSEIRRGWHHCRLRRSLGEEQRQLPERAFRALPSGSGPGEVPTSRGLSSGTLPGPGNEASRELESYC
Test: cell-based or functional assay
PARAMETER: Emax (10 µM), % of native GIP (%)
The figure you give is taken to be in %; do not add the unit.

Task item: Fill blank: measured Emax (10 µM), % of native GIP of the binder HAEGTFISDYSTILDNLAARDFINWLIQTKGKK [GIP-GLP-2 co-agonist 10] is ____.
Reply: 100

Task item: Moving on to HAEGSFISDYSTILDNLAARDFINWLIQTKITD [GIP-GLP-2 co-agonist 4]
Reply: 83

Task item: Moving on to HAEGTFISDYSTILDNIHQQDFINWLIQTKITD [GIP-GLP-2 co-agonist 8]
Reply: 100

Task item: Moving on to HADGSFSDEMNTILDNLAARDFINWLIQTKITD (ligand) [human native GLP-2]
Reply: 22

Task item: Moving on to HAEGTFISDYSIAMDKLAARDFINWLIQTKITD [GIP-GLP-2 co-agonist 7]
Reply: 92
